The entries below are paired with their reported combination Emax.
Tested on: LB996-RCC (Kidney Carcinoma)
Method: combination Emax (second highest fraction inhibited in the dose matrix, 72 h); higher = more inhibition; extreme values may be limits of the assay
Recorded metric: combination Emax

# Compound, Reported measurement
records = [
    ("COc1cccc(OCCCN)c1-c1cc(Nc2cnc(C#N)cn2)n[nH]1 [Prexasertib] + C[C@@H]1COCCN1C2=NC(=NC(=C2)C3(CC3)[S@](=N)(=O)C)C4=C5C=CNC5=NC=C4 [AZD6738] (first compound max 1 µM, 7x7, partner max 10 µM)", 0.786),
    ("COc1cccc(OCCCN)c1-c1cc(Nc2cnc(C#N)cn2)n[nH]1 [Prexasertib] + C=CCn1c(=O)c2cnc(Nc3ccc(N4CCN(C)CC4)cc3)nc2n1-c1cccc(C(C)(C)O)n1 [AZD1775] (first compound max 1 µM, partner max 1 µM)", 0.877),
    ("CC1(C)CCC(CN2CCN(c3ccc(C(=O)NS(=O)(=O)c4ccc(NCC5CCOCC5)c([N+](=O)[O-])c4)c(Oc4cnc5[nH]ccc5c4)c3)CC2)=C(c2ccc(Cl)cc2)C1 [Venetoclax] + C[C@@H](Nc1cc(F)cc(F)c1)c1cc(C(=O)N(C)C)cc2c(=O)cc(N3CCOCC3)oc12 [AZD8186] (first compound max 1 µM, 7x7, partner max 3 µM)", 0.306),
    ("CN(CCO)CC[C@H](CSc1ccccc1)Nc1ccc(S(=O)(=O)NC(=O)c2ccc(N3CCC([C@@H](O)c4ccccc4-c4ccc(Cl)cc4)CC3)cc2)cc1S(=O)(=O)C(F)(F)F [AZD4320] + Cn1cnc2c(F)c(Nc3ccc(Br)cc3Cl)c(C(=O)NOCCO)cc21 [Selumetinib] (first compound max 1 µM, 7x7, partner max 3 µM)", 0.513),
    ("CC1(C)CCC(CN2CCN(c3ccc(C(=O)NS(=O)(=O)c4ccc(NCC5CCOCC5)c([N+](=O)[O-])c4)c(Oc4cnc5[nH]ccc5c4)c3)CC2)=C(c2ccc(Cl)cc2)C1 [Venetoclax] + Cn1cnc2c(F)c(Nc3ccc(Br)cc3Cl)c(C(=O)NOCCO)cc21 [Selumetinib] (first compound max 1 µM, 7x7, partner max 3 µM)", 0.156),
    ("CC(=O)c1c(C)c2cnc(Nc3ccc(N4CCNCC4)cn3)nc2n(C2CCCC2)c1=O [Palbociclib] + Cc1c2c(nn1C)CSCc1cc(n(C)n1)CSc1cc(c3ccccc3c1)OCCCc1c(C(=O)O)n(C)c3c-2c(Cl)ccc13 [AZD5991] (first compound max 10 µM, 7x7, partner max 1 µM)", 0.397),
]

----------
The entries below are paired with their reported Bliss excess.
Tested on: MFE-280 (Endometrial Carcinoma)
Method: Bliss excess, mean over the matrix (fraction); higher = more synergy

# Molecule, Bliss excess
measured = [
    ("CCc1c2c(nc3ccc(O)cc13)-c1cc3c(c(=O)n1C2)COC(=O)[C@]3(O)CC [SN-38] + O=C(c1cc(Cc2n[nH]c(=O)c3ccccc23)ccc1F)N1CCN(C(=O)C2CC2)CC1 [Olaparib] (first compound max 0.3 µM, 7x7, partner max 10 µM)", 0.0167),
    ("Cc1cc2ncnn2cc1Nc1ncc2c(n1)n(C1CCOCC1)c(=O)n2C [AZD7648] + CN(C)CCCOc1ccc(-c2ccc3ncc4c(c3c2)n(C2CCOCC2)c(=O)n4C)cn1 [AZD0156] (first compound max 10 µM, 7x7, partner max 1 µM)", 0.0058),
    ("NC1(C(=O)N[C@@H](CCO)c2ccc(Cl)cc2)CCN(c2ncnc3[nH]ccc23)CC1 [Capivasertib] + Cn1cnc2c(F)c(Nc3ccc(Br)cc3Cl)c(C(=O)NOCCO)cc21 [Selumetinib] (first compound max 10 µM, 7x7, partner max 10 µM)", 0.0212),
    ("C[C@@H]1COCCN1c1cc(C2([S@](C)(=N)=O)CC2)nc(-c2ccnc3[nH]ccc23)n1 [AZD6738] + O=C(c1cc(Cc2n[nH]c(=O)c3ccccc23)ccc1F)N1CCN(C(=O)C2CC2)CC1 [Olaparib] (first compound max 10 µM, 7x7, partner max 10 µM)", 0.0368),
    ("CN(CCO)CC[C@H](CSc1ccccc1)Nc1ccc(S(=O)(=O)NC(=O)c2ccc(N3CCC([C@@H](O)c4ccccc4-c4ccc(Cl)cc4)CC3)cc2)cc1S(=O)(=O)C(F)(F)F [AZD4320] + CS(=O)(=O)CCNCc1ccc(-c2ccc3ncnc(Nc4ccc(OCc5cccc(F)c5)c(Cl)c4)c3c2)o1 [Lapatinib] (first compound max 1 µM, 7x7, partner max 10 µM)", 0.0411),
]

----------
Tested on: VAL (B-Cell Non-Hodgkin's Lymphoma)
Method: Bliss excess, mean over the matrix (fraction); higher = more synergy

# Compound, Bliss excess
records = [
    ("CC(=O)Nc1cccc(-n2c(=O)n(C3CC3)c(=O)c3c(Nc4ccc(I)cc4F)n(C)c(=O)c(C)c32)c1 [Trametinib] + Cc1nc(-c2cn3c(n2)-c2ccc(-c4cnn(C(C)(C)C(N)=O)c4)cc2OCC3)n(C(C)C)n1 [Taselisib] (first compound max 1 µM, 7x7, partner max 10 µM)", 0.101),
    ("C=CCn1c(=O)c2cnc(Nc3ccc(N4CCN(C)CC4)cc3)nc2n1-c1cccc(C(C)(C)O)n1 [AZD1775] + O=C(c1cc(Cc2n[nH]c(=O)c3ccccc23)ccc1F)N1CCN(C(=O)C2CC2)CC1 [Olaparib] (first compound max 1 µM, partner max 10 µM)", -0.0411),
    ("C[C@@H](Oc1cc(-c2cnn(C3CCNCC3)c2)cnc1N)c1c(Cl)ccc(F)c1Cl [Crizotinib] + CC1=C(C(=CC=C1)Cl)NC(=O)C2=CN=C(S2)NC3=CC(=NC(=N3)C)N4CCN(CC4)CCO [Dasatinib] (first compound max 10 µM, 7x7, partner max 2 µM)", -0.0228),
    ("CC1(C)CCC(CN2CCN(c3ccc(C(=O)NS(=O)(=O)c4ccc(NCC5CCOCC5)c([N+](=O)[O-])c4)c(Oc4cnc5[nH]ccc5c4)c3)CC2)=C(c2ccc(Cl)cc2)C1 [Venetoclax] + COc1cc(Nc2ncc3c(n2)-c2ccc(Cl)cc2C(c2c(F)cccc2OC)=NC3)ccc1C(=O)O [Alisertib] (first compound max 1 µM, 7x7, partner max 10 µM)", 0.0174),
    ("CN(CCO)CC[C@H](CSc1ccccc1)Nc1ccc(S(=O)(=O)NC(=O)c2ccc(N3CCC([C@@H](O)c4ccccc4-c4ccc(Cl)cc4)CC3)cc2)cc1S(=O)(=O)C(F)(F)F [AZD4320] + Cc1cc2ncnn2cc1Nc1ncc2c(n1)n(C1CCOCC1)c(=O)n2C [AZD7648] (first compound max 1 µM, 7x7, partner max 10 µM)", 0.0316),
]

----------
Tested on: OPM-2 (Plasma Cell Myeloma)
Method: Bliss excess, mean over the matrix (fraction); higher = more synergy
The entries below are paired with their reported Bliss excess.

# Compound, Measured target, Bliss excess
measured = [
    ("O=C(c1cc(Cc2n[nH]c(=O)c3ccccc23)ccc1F)N1CCN(C(=O)C2CC2)CC1 [Olaparib] + CC1(C)CCC(CN2CCN(c3ccc(C(=O)NS(=O)(=O)c4ccc(NCC5CCOCC5)c([N+](=O)[O-])c4)c(Oc4cnc5[nH]ccc5c4)c3)CC2)=C(c2ccc(Cl)cc2)C1 [Venetoclax] (first compound max 10 µM, 7x7, partner max 1 µM)", "OPM-2 (Plasma Cell Myeloma)", 0.0309),
    ("NC1(C(=O)N[C@@H](CCO)c2ccc(Cl)cc2)CCN(c2ncnc3[nH]ccc23)CC1 [Capivasertib] + COc1nnc2ccc(N3CCC(c4ccc(OCCN5CCN(C)C(=O)[C@H]5C)cc4)CC3)nn12 [AZD5153] (first compound max 10 µM, 7x7, partner max 1 µM)", "OPM-2 (Plasma Cell Myeloma)", -0.0129),
    ("N#Cc1cnc(Nc2cc(NC[C@H]3CNCCO3)c(C(F)(F)F)cn2)cn1 [SRA737] + Nc1ccn([C@@H]2O[C@H](CO)[C@@H](O)C2(F)F)c(=O)n1 [Gemcitabine] (first compound max 10 µM, 7x7, partner max 0.3 µM)", "OPM-2 (Plasma Cell Myeloma)", 0.0238),
    ("CS(=O)(=O)CCNCc1ccc(-c2ccc3ncnc(Nc4ccc(OCc5cccc(F)c5)c(Cl)c4)c3c2)o1 [Lapatinib] + Cn1cnc2c(F)c(Nc3ccc(Br)cc3Cl)c(C(=O)NOCCO)cc21 [Selumetinib] (first compound max 10 µM, 7x7, partner max 10 µM)", "OPM-2 (Plasma Cell Myeloma)", -0.0294),
    ("CN(CCO)CC[C@H](CSc1ccccc1)Nc1ccc(S(=O)(=O)NC(=O)c2ccc(N3CCC([C@@H](O)c4ccccc4-c4ccc(Cl)cc4)CC3)cc2)cc1S(=O)(=O)C(F)(F)F [AZD4320] + C1CN(CCC1(C(=O)N[C@@H](CCO)C2=CC=C(C=C2)Cl)N)C3=NC=NC4=C3C=CN4 [Capivasertib] (first compound max 1 µM, 7x7, partner max 3 µM)", "OPM-2 (Plasma Cell Myeloma)", -0.0088),
    ("CS(=O)(=O)CCNCc1ccc(-c2ccc3ncnc(Nc4ccc(OCc5cccc(F)c5)c(Cl)c4)c3c2)o1 [Lapatinib] + C[C@@H](Oc1cc(-c2cnn(C3CCNCC3)c2)cnc1N)c1c(Cl)ccc(F)c1Cl [Crizotinib] (first compound max 10 µM, 7x7, partner max 10 µM)", "OPM-2 (Plasma Cell Myeloma)", -0.0611),
]
